# ASSAY SUMMARY: Liver microsome stability, dog
# Type: in vitro ADME
# TEST PARAMETERS: dog, liver microsomes, Replicate 1/2; Eurofins; read-out: Microsomal stability (t½, min) Dog
QUANTITY KIND: half-life

[[record]]
compound = "O=C(Nc1nnc(-c2ccc(F)cc2)o1)N1CCc2ccccc2C1 [MBX-4132]"
quantity_kind = "half-life"
test_result = "> 60 min"


---

# ASSAY SUMMARY: Liver microsome stability, murine
# Format: in vitro ADME, mouse
# TEST PARAMETERS: murine liver microsomes; individual replicates
Below is a list of entries, each paired with its recorded MLMS t½ value.
QUANTITY KIND: MLMS t½

[[record]]
sample_smiles = "O=C(Nc1nnc(C2CCCCC2)o1)c1ccc(Cl)cc1"
test_result = "<5 min"

[[record]]
sample_smiles = "O=C(Nc1nnc(-c2ccc(F)cc2)o1)C1CCCCC1"
test_result = "<5 min"

[[record]]
sample_smiles = "O=C(Nc1nnc(-c2ccccc2)o1)c1ccc(Cl)cc1"
test_result = "5 min"

[[record]]
sample_smiles = "O=C(Nc1nnc(-c2ccc(F)cc2)o1)c1ccccc1"
test_result = "<5 min"

[[record]]
sample_smiles = "Cc1ccc(S(=O)(=O)Nc2nnc(-c3ccc(F)cc3)o2)cc1"
test_result = "<5 min"

[[record]]
sample_smiles = "O=C(Nc1nnc(-c2ccc(F)cc2)o1)c1ccc(Cl)cc1"
test_result = "<5 min"

[[record]]
sample_smiles = "O=C(Nc1nnc(-c2ccc(F)cc2)o1)N1CCc2ccccc2C1"
test_result = ">120 min"

[[record]]
sample_smiles = "O=C(Nc1nnco1)c1ccc(Cl)cc1"
test_result = "<5 min"


---

# ASSAY SUMMARY: Pharmacokinetic analyses in mice (PO suspension, IV, SC)
# Type: in vivo, mouse
# TEST PARAMETERS: mouse, in vivo, po, 10 mg/kg, PO (10 mg/kg), 1 hrs, individual animals; read-out: MBX 4132 Concentrations in Mouse Plasma
QUANTITY KIND: concentration at 1 h (ng/mL)

[[record]]
sample_smiles = "O=C(Nc1nnc(-c2ccc(F)cc2)o1)N1CCc2ccccc2C1"
quantity_kind = "concentration at 1 h"
test_result = 1090


---

# ASSAY SUMMARY: Caco-2 permeability
# Assay type: in vitro ADME, human
# TEST PARAMETERS: human, Caco-2, A→B; Replicate 1/2; Eurofins; read-out: Caco-2 A→B
# Procedure: To evaluate the potential for oral bioavailability, the ability of prioritized compounds to permeate a monolayer of Caco-2 (ATCC HTB-37) intestinal epithelial cells was determined as described. Caco-2 permeability values (Papp) > 1 × 10^−6 cm/sec are predictive of oral bioavailability.
QUANTITY KIND: Papp A→B (×10⁻⁶ cm/s)

[[record]]
molecule = "O=C(Nc1nnc(-c2ccc(F)cc2)o1)N1CCc2ccccc2C1 [MBX-4132]"
test_result = 12.4


---

# ASSAY SUMMARY: Pharmacokinetic analyses in mice (PO suspension, IV, SC)
# Type: in vivo, mouse
# TEST PARAMETERS: female, CD-1, mouse, in vivo, sc, 25 mg/kg, SC (25 mg/kg), 4 hrs, individual animals; read-out: MBX 4132 Concentrations in Mouse Plasma
QUANTITY KIND: concentration at 4 h (ng/mL)

[[record]]
sample_smiles = "O=C(Nc1nnc(-c2ccc(F)cc2)o1)N1CCc2ccccc2C1"
quantity_kind = "concentration at 4 h"
quantity_unit = "ng/mL"
test_result = 2380


---

# ASSAY SUMMARY: Pharmacokinetic analyses in mice (PO suspension, IV, SC)
# Assay type: in vivo, mouse
# TEST PARAMETERS: mouse, in vivo, iv, 10 mg/kg, IV (10 mg/kg), 1 hrs, individual animals; read-out: MBX 4132 Concentrations in Mouse Plasma
QUANTITY KIND: concentration at 1 h (ng/mL)

[[record]]
sample_smiles = "O=C(Nc1nnc(-c2ccc(F)cc2)o1)N1CCc2ccccc2C1"
test_result = 21000


---

# ASSAY SUMMARY: Pharmacokinetic analyses in mice (PO suspension, IV, SC)
# Type: in vivo, mouse
# TEST PARAMETERS: mouse, in vivo, iv, 10 mg/kg, IV (10 mg/kg), 0.083 hrs, mean of 3 animals; read-out: MBX 4132 Concentrations in Mouse Plasma, Mean
QUANTITY KIND: concentration at 0.083 h (µg/mL)

[[record]]
compound = "O=C(Nc1nnc(-c2ccc(F)cc2)o1)N1CCc2ccccc2C1 [MBX 4132]"
quantity_kind = "concentration at 0.083 h"
quantity_unit = "µg/mL"
test_result = 66.3


---

# ASSAY SUMMARY: Pharmacokinetic analyses in mice (PO suspension, IV, SC)
# Type: in vivo, mouse
# TEST PARAMETERS: female, CD-1, mouse, in vivo, sc, 25 mg/kg, SC (25 mg/kg), 1 hrs, individual animals; read-out: MBX 4132 Concentrations in Mouse Plasma
# Procedure: Female CD-1 mice as above were fasted for 2 h prior, and 4 h after dosing. […] […], 3 mice from each group were euthanized by CO2 inhalation, blood was collected by cardiac puncture into K2EDTA collection tubes, and protein was precipitated and analysed by LC/MS-MS for plasma concentrations of MBX-4132. Data were analysed using WinNonLin. […] Data were analysed using WinNonLin.
QUANTITY KIND: concentration at 1 h (ng/mL)

[[record]]
sample_smiles = "O=C(Nc1nnc(-c2ccc(F)cc2)o1)N1CCc2ccccc2C1"
test_result = 3020


---

# ASSAY SUMMARY: Mitochondrial toxicity assay, glucose vs galactose
# Assay type: cell-based
# TEST PARAMETERS: human, HepG2 cells, HepG2; Glucose; Conc. (μM) 1.00E-05
QUANTITY KIND: viability at 24 h, 10 µM

[[record]]
sample_smiles = "O=C(Nc1nnc(-c2ccc(F)cc2)o1)N1CCc2ccccc2C1"
test_result = "108%"


---

# ASSAY SUMMARY: Caco-2 permeability
# Format: in vitro ADME, human
# TEST PARAMETERS: human, Caco-2, A to B; read-out: Caco-2 Papp (A to B)
# Description: To evaluate the potential for oral bioavailability, the ability of prioritized compounds to permeate a monolayer of Caco-2 (ATCC HTB-37) intestinal epithelial cells was determined as described. Caco-2 permeability values (Papp) > 1 × 10^−6 cm/sec are predictive of oral bioavailability.
QUANTITY KIND: Papp A→B (×10⁻⁶ cm/s)

[[record]]
sample_smiles = "O=C(Nc1nnc(-c2ccc(F)cc2)o1)N1CCc2ccccc2C1"
quantity_kind = "Papp A→B"
test_result = 11.1


---

# ASSAY SUMMARY: Pharmacokinetic analyses in mice (PO suspension, IV, SC)
# Format: in vivo, mouse
# TEST PARAMETERS: female, CD-1, mouse, in vivo, sc, 10 mg/kg, SC (10 mg/kg), 24 hrs, mean of 3 animals; read-out: MBX 4132 Concentrations in Mouse Plasma, Mean
QUANTITY KIND: concentration at 24 h (ng/mL)

[[record]]
sample_smiles = "O=C(Nc1nnc(-c2ccc(F)cc2)o1)N1CCc2ccccc2C1"
test_result = 608


---

# STUDY TARGET: hERG potassium channel (Homo sapiens, UniProt Q12809)
# Construct: purchased Eurofins Discovery Services (Panlabs safety panel)
# Sequence (Q12809 whole entry): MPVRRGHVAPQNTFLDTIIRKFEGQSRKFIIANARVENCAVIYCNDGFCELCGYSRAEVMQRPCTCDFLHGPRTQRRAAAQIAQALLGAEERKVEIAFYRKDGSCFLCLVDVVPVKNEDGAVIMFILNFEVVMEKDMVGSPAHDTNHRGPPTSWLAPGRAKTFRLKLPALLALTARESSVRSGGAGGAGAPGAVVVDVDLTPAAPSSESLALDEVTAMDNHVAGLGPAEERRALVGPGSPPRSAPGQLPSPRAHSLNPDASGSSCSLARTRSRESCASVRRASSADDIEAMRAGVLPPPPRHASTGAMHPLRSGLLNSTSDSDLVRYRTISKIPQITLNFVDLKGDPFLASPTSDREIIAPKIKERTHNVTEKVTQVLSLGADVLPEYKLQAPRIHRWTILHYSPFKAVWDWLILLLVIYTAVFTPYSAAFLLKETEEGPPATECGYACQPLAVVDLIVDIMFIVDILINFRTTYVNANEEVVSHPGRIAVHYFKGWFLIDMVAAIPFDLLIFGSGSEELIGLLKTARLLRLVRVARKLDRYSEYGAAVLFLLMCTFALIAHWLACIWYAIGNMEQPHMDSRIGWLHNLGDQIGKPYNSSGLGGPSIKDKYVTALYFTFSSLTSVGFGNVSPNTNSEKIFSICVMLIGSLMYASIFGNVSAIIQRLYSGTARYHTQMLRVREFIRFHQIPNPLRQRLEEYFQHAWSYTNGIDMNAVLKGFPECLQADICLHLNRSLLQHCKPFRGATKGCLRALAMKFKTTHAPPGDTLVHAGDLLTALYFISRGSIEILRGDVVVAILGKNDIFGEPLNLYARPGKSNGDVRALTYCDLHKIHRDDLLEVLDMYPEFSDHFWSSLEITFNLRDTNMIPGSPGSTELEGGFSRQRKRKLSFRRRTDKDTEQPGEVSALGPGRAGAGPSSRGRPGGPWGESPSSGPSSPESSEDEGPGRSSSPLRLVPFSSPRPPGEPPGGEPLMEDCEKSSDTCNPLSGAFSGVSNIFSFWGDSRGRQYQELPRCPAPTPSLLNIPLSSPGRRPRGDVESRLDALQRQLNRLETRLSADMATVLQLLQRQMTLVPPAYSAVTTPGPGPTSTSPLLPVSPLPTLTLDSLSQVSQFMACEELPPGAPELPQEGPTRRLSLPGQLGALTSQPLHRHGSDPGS
# ASSAY SUMMARY: Receptor Profiling 265910
# Format: binding
# TEST PARAMETERS: probe [3H]dofetilide
QUANTITY KIND: inhibition at 10 µM

[[record]]
compound = "O=C(Nc1nnc(-c2ccc(F)cc2)o1)N1CCc2ccccc2C1 [MBX-4132]"
quantity_kind = "inhibition at 10 µM"
test_result = "27%"


---

# ASSAY SUMMARY: Pharmacokinetic analyses in mice (PO suspension, IV, SC)
# Type: in vivo, mouse
# TEST PARAMETERS: female, CD-1, mouse, in vivo, sc, 10 mg/kg, SC (10 mg/kg), 0.083 hrs, mean of 3 animals; read-out: MBX 4132 Concentrations in Mouse Plasma, Mean
QUANTITY KIND: concentration at 0.083 h

[[record]]
molecule = "O=C(Nc1nnc(-c2ccc(F)cc2)o1)N1CCc2ccccc2C1 [MBX 4132]"
test_result = "786 ng/mL"


---

# ASSAY SUMMARY: Pharmacokinetic analyses in mice (PO suspension, IV, SC)
# Type: in vivo, mouse
# TEST PARAMETERS: female, CD-1, mouse, in vivo, sc, 10 mg/kg, SC (10 mg/kg), 8 hrs, mean of 3 animals; read-out: MBX 4132 Concentrations in Mouse Plasma, Mean
QUANTITY KIND: concentration at 8 h (ng/mL)

[[record]]
compound = "O=C(Nc1nnc(-c2ccc(F)cc2)o1)N1CCc2ccccc2C1 [MBX 4132]"
quantity_kind = "concentration at 8 h"
quantity_unit = "ng/mL"
test_result = 2430


---

Below is a list of entries, each paired with its recorded Average MLMS t½ value.
# ASSAY SUMMARY: Liver microsome stability, murine
# Assay type: in vitro ADME, mouse
# TEST PARAMETERS: murine liver microsomes; average of replicates
QUANTITY KIND: Average MLMS t½ (min)

[[record]]
sample_smiles = "O=C(Nc1nnc(C2CCCCC2)o1)c1ccc(Cl)cc1"
censor_symbol = "<"
test_result = 5

[[record]]
sample_smiles = "O=C(Nc1nnco1)c1ccc(Cl)cc1"
censor_symbol = "<"
test_result = 5

[[record]]
sample_smiles = "O=C(Nc1nnc(-c2ccc(F)cc2)o1)N1CCCCCC1"
censor_symbol = "="
test_result = 19

[[record]]
sample_smiles = "O=C(Nc1nnc(-c2ccc(F)cc2)o1)c1ccccc1"
censor_symbol = "<"
test_result = 5

[[record]]
sample_smiles = "O=C(Nc1nnc(-c2ccc(F)cc2)o1)C1CCCCC1"
censor_symbol = "<"
test_result = 5

[[record]]
sample_smiles = "O=C(Nc1nnc(-c2ccccc2)o1)c1ccc(Cl)cc1"
censor_symbol = "="
test_result = 5

[[record]]
sample_smiles = "O=C(Nc1nnc(-c2ccc(F)cc2)o1)c1ccc(Cl)cc1"
censor_symbol = "<"
test_result = 5

[[record]]
sample_smiles = "O=C(Nc1nnc(-c2ccc(F)cc2)o1)N1CCCCC1"
censor_symbol = "="
test_result = 12

[[record]]
sample_smiles = "O=C(Nc1nnc(-c2ccc(F)cc2)o1)N1CCc2ccccc2C1"
censor_symbol = ">"
test_result = 120

[[record]]
sample_smiles = "Cc1ccc(S(=O)(=O)Nc2nnc(-c3ccc(F)cc3)o2)cc1"
censor_symbol = "<"
test_result = 5

[[record]]
sample_smiles = "O=C(Nc1nnc(-c2ccc(F)cc2)o1)N1CCCC1"
censor_symbol = "="
test_result = 25

[[record]]
sample_smiles = "Fc1ccc(-c2nnc(NCc3ccc(Cl)cc3)o2)cc1"
censor_symbol = "="
test_result = 5.3

